# key: entry, value: pKd
# MEASURED ON: T1, human 2Ig-B7H3 (B7H3-2Ig-His) (human, UniProt Q5ZPR3 29-466)
# T1 construct: Recombinant His-tagged protein immobilised on a CM5 chip; also called 21g-B7H3; B7H3-21g-His; not shown: His tag
# T1 sequence: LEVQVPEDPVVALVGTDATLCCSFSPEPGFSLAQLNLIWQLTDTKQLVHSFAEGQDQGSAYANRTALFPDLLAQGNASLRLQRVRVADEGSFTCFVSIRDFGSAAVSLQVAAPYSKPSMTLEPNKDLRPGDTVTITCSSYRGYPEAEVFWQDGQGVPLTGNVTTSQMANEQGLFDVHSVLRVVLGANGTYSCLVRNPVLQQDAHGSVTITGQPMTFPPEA
# PROTOCOL DETAILS: SPR, Biacore T200, 2Ig-B7H3-His on CM5 chip, 1:1 fit
FYI, pKd means -log10 of a concentration in mol per litre.

- BINDER: "175Lu-DTPA-8H9-antibody (CAR1.4) (antibody, mouse IgG1, kappa, V domains shown, p-SCN-Bn-CHX-A″-DTPA conjugated (CAR 1.4 per antibody), labelled with cold lutetium-175; sites not stated) VH: QVQLQQSGAELVKPGASVKLSCKASGYTFTNYDINWVRQRPEQGLEWIGWIFPGDGSTQYNEKFKGKATLTTDTSSSTAYMQLSRLTSEDSAVYFCARQTTATWFAYWGQGTLVTVSA VL: DIVMTQSPATLSVTPGDRVSLSCRASQSISDYLHWYQQKSHESPRLLIKYASQSISGIPSRFSGSGSGSDFTLSINSVEPEDVGVYYCQNGHSFPLTFGAGTKLELKR"
  pKd: 9.66
- BINDER: "175Lu-DOTA-8H9-antibody (CAR2.6) (antibody, mouse IgG1, kappa, V domains shown, p-SCN-Bn-DOTA conjugated (CAR 2.6 per antibody), labelled with cold lutetium-175; sites not stated) VH: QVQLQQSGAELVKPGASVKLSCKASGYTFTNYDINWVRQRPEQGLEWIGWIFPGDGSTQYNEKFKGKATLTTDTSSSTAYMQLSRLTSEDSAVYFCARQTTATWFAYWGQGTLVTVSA VL: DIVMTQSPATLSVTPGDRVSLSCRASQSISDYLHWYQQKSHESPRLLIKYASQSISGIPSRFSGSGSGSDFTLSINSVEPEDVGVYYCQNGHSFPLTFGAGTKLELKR"
  pKd: 8.76

Here's the next entry for you.
Lookup: Tell me pKd reported for hu8H9-3.1 (antibody, V domains shown) VH: QVQLVQSGAEVVKPGASVKLSCKTSGYTFTNYDINWVRQRPGQGLEWIGWIFPGDDSTQYNEKFKGKATLTTDTSTSTAYMELSSLRSEDTAVYFCARQTTGTWFAYWGQGTLVTVSS VL: EIVMTQSPATLSVSPGERVTLSCRASQSISDYLYWYQQKSHESPRLLIKYASQSISGIPARFSGSGSGSEFTLTINSVEPEDVGVYYCQNGHSFPLTFGQGTKLELKR
Found: 8.65
